- target of assay: GST-VND3 NAC domain (Arabidopsis thaliana, UniProt Q9FH59 12-162)
- Sequence: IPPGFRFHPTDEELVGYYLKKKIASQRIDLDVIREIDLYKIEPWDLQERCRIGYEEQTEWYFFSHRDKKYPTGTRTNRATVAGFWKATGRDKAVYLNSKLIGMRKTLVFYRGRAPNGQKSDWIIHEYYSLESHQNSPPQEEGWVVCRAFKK
- assay summary: universal protein binding microarray (PBM); high values mean tight binding
- settings: protein: recombinant; tags: GST; chain copies: 2; dsDNA, one strand shown

query sequence	binding signal (E-score)
TGGAGTAA	0.0609
CACGTTAG	0.164
ACACGTCA	0.395
AAGCAATC	0.152
AATGGTCA	0.0734
GCACGCAA	0.438
AAAGGAAA	0.166
AACGTGTA	0.275
AAGGTAAG	0.113
AAACGTGT	0.328
GAGACGTA	0.418
ATGTTGAC	0.0635
ACGTTAAC	0.209
TAACGTAA	0.375
GAACACGC	0.138

###

Recorded binding signal by entry
- target of assay: GST-NTL6(1-168) (Arabidopsis thaliana, UniProt Q9SCK6 1-168)
- Sequence (Q9SCK6 1-168): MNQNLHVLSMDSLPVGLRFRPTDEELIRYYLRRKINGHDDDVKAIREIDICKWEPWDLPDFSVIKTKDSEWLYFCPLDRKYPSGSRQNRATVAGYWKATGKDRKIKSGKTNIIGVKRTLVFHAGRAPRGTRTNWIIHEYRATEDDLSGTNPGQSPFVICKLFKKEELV
- assay summary: universal protein binding microarray (PBM); transcription factors of Arabidopsis thaliana; high values mean tight binding
- settings: protein: recombinant; tags: GST; chain copies: 2; dsDNA, one strand shown

query sequence	target of assay	reading unit	binding signal
GTTTCCTA	GST-NTL6(1-168) (Arabidopsis thaliana, UniProt Q9SCK6 1-168)	E-score	0.0734
ATTACTTA	GST-NTL6(1-168) (Arabidopsis thaliana, UniProt Q9SCK6 1-168)	E-score	0.49
AATTGACT	GST-NTL6(1-168) (Arabidopsis thaliana, UniProt Q9SCK6 1-168)	E-score	0.0713
AGGTAAGG	GST-NTL6(1-168) (Arabidopsis thaliana, UniProt Q9SCK6 1-168)	E-score	0.27
AACGTAAC	GST-NTL6(1-168) (Arabidopsis thaliana, UniProt Q9SCK6 1-168)	E-score	0.15
GCTAAGTA	GST-NTL6(1-168) (Arabidopsis thaliana, UniProt Q9SCK6 1-168)	E-score	0.429
ATTGCTTC	GST-NTL6(1-168) (Arabidopsis thaliana, UniProt Q9SCK6 1-168)	E-score	0.348
AGAGGTAA	GST-NTL6(1-168) (Arabidopsis thaliana, UniProt Q9SCK6 1-168)	E-score	0.237
ATTACGTA	GST-NTL6(1-168) (Arabidopsis thaliana, UniProt Q9SCK6 1-168)	E-score	0.201
AAGTTACC	GST-NTL6(1-168) (Arabidopsis thaliana, UniProt Q9SCK6 1-168)	E-score	0.308
ATTAAGTA	GST-NTL6(1-168) (Arabidopsis thaliana, UniProt Q9SCK6 1-168)	E-score	0.441
AACACGCC	GST-NTL6(1-168) (Arabidopsis thaliana, UniProt Q9SCK6 1-168)	E-score	0.094
ACACGCTA	GST-NTL6(1-168) (Arabidopsis thaliana, UniProt Q9SCK6 1-168)	E-score	0.0935
AAGAAACC	GST-NTL6(1-168) (Arabidopsis thaliana, UniProt Q9SCK6 1-168)	E-score	0.261
AAGTAATA	GST-NTL6(1-168) (Arabidopsis thaliana, UniProt Q9SCK6 1-168)	E-score	0.428
CTTTTGAC	GST-NTL6(1-168) (Arabidopsis thaliana, UniProt Q9SCK6 1-168)	E-score	0.0997
ACGCAAAT	GST-NTL6(1-168) (Arabidopsis thaliana, UniProt Q9SCK6 1-168)	E-score	0.0591
GAAGTAAC	GST-NTL6(1-168) (Arabidopsis thaliana, UniProt Q9SCK6 1-168)	E-score	0.381
ACGTAACA	GST-NTL6(1-168) (Arabidopsis thaliana, UniProt Q9SCK6 1-168)	E-score	0.133
GTAAGTAA	GST-NTL6(1-168) (Arabidopsis thaliana, UniProt Q9SCK6 1-168)	E-score	0.474
TAACGTGA	GST-NTL6(1-168) (Arabidopsis thaliana, UniProt Q9SCK6 1-168)	E-score	0.0647
ACGTAAGT	GST-NTL6(1-168) (Arabidopsis thaliana, UniProt Q9SCK6 1-168)	E-score	0.212
TGAAGAAA	GST-NTL6(1-168) (Arabidopsis thaliana, UniProt Q9SCK6 1-168)	E-score	0.339
ACGCTTCC	GST-NTL6(1-168) (Arabidopsis thaliana, UniProt Q9SCK6 1-168)	E-score	0.0789
AGGGTAAA	GST-NTL6(1-168) (Arabidopsis thaliana, UniProt Q9SCK6 1-168)	E-score	0.0852
AGTTGACC	GST-NTL6(1-168) (Arabidopsis thaliana, UniProt Q9SCK6 1-168)	E-score	0.0645
AGGGTAAT	GST-NTL6(1-168) (Arabidopsis thaliana, UniProt Q9SCK6 1-168)	E-score	0.143
AGTAAGTA	GST-NTL6(1-168) (Arabidopsis thaliana, UniProt Q9SCK6 1-168)	E-score	0.415
AAGGGTCA	GST-NTL6(1-168) (Arabidopsis thaliana, UniProt Q9SCK6 1-168)	E-score	0.0797
CACGAAAC	GST-NTL6(1-168) (Arabidopsis thaliana, UniProt Q9SCK6 1-168)	E-score	0.112
AGCTTTCC	GST-NTL6(1-168) (Arabidopsis thaliana, UniProt Q9SCK6 1-168)	E-score	0.233
CCACGGAA	GST-NTL6(1-168) (Arabidopsis thaliana, UniProt Q9SCK6 1-168)	E-score	0.117
AAGTAATC	GST-NTL6(1-168) (Arabidopsis thaliana, UniProt Q9SCK6 1-168)	E-score	0.414
GTTGACTA	GST-NTL6(1-168) (Arabidopsis thaliana, UniProt Q9SCK6 1-168)	E-score	0.072
ACAAGTAA	GST-NTL6(1-168) (Arabidopsis thaliana, UniProt Q9SCK6 1-168)	E-score	0.25
